The values you see were collected from patent US20190309034A1.

- MEASURED_TARGET: Recombinant soluble 60-mer human BAFF (His-HuBAFF 134-285) (human, UniProt Q9Y275 134-285)
- TEST_DESCRIPTION: cell-based or functional assay
Give Soluble 60-mer huBAFF (4.2 pM) Neutralization IC90 for every item shown.
Respond with the bare value in pM.

In plain terms, 227D5A7 (antibody, V domains shown, Mouse lead antibody (hybridoma)) VH: QVQLQQPGAELVKPGASVKLSCKASGYTFSIFCVHWVQQRPGRGLEWIGRIDPSSGGTKYNEKFESKATLTVDKSSSTAYMQLSSLTPEDSAVYYCARGEDLLVRTDALDYWGQGSSVTVSS VL: DIVMTQSQKFMSTTVGDRVSITCKASQNAGAAVAWFQQKPGQSPKLLIYSASNRYTGVPDRFTGSGSGTDFTLTISNVQSEDLADYICQQYRSFPRTFGGGTKLEIK has a documented Soluble 60-mer huBAFF (4.2 pM) Neutralization IC90 of 0.8

In plain terms, 214G4B7 (antibody, V domains shown, Mouse lead antibody (hybridoma)) VH: QVQLQQPGAEFVKPGASVKLSCKASGYSFSTFCIHWVQQRPGRGLEWIGRIDPNSGGTKYNEKFESKATLTIDKPSSTAYVHLSSLTSEDSAVYYCARGEDLLIRTDAMDYWGQGTSVTVSS VL: DIVMTQSQKFMSTTVGDRVSITCKASQNAGTAVAWFQQKPGQSPKLLIFSTSNRYTGVPDRFTGSGSGTDFTLTISNMQSEDLADYFCLQYRSYPRTFGGGTKLEIK has a documented Soluble 60-mer huBAFF (4.2 pM) Neutralization IC90 of 3

In plain terms, 210D9B8 (antibody, V domains shown, Mouse lead antibody (hybridoma)) VH: QVQLQQPGTEFVKPGASVKLSCEASGYTFITYWMHWVKQRPGRGLEWIGGIDPNSGVIKYNEKFKSKATLTVDKPSSTAYMQLSSLTSEDSAVYYCARGEDLLIRTDAMDYWGQGTSVTVSS VL: DIVMTQSQKFVSTTLGDRVSITCKASQSVGIAVAWYQQKPGHSPNLLIFSTSNRYTGVPDRFTGSGSGTDFTLTISDVQSEDLADYFCQQYSRYPRTFGGGTKLEIK has a documented Soluble 60-mer huBAFF (4.2 pM) Neutralization IC90 of 14
